- Protocol Description: RAM signaling pathway blockade in yeast – S. cerevisiae, Pdr1DBD-CYC8 efflux-inhibited sensitized strain, primary screen (AID 1298);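 further: 0% = DMSO untreated cells without growth and 100% = 10 µM 1-NA-PP1 full growth; higher means more yeast growth rescued from 5-FOA killing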
- Details: S. cerevisiae cbk1-as DSE1-URA3 strain, 5-FOA growth OD615, 2 d; at 50 µM; hits give high values
Endpoint: RAM network inhibition (%)
Write the answer as a number in %, unit excluded.

Recorded RAM network inhibition, per entry:
[
  {
    "Compound": "O=S(=O)(c1cccc2cccnc12)N(CCO)CCO",
    "Measure Unit": "%",
    "Reported Value": 2.69
  },
  {
    "Compound": "COc1ccc(S(=O)(=O)Cc2ccc(C(=O)NCCc3ccc(S(N)(=O)=O)cc3)o2)cc1",
    "Measure Unit": "%",
    "Reported Value": 0.1
  },
  {
    "Compound": "Cc1ccnc2c(N3C(=O)C4C5C=CC(C5)C4(C)C3=O)cccc12 (stereo unspecified)",
    "Measure Unit": "%",
    "Reported Value": -1.63
  },
  {
    "Compound": "Cc1ccc(C(C)C)c(OCCCN2CC(C)OC(C)C2)c1 (stereo unspecified)",
    "Measure Unit": "%",
    "Reported Value": 1.47
  },
  {
    "Compound": "CCOC(=O)c1cnc2c(Cl)cc(Cl)cc2c1NCCOCCO",
    "Measure Unit": "%",
    "Reported Value": 2.56
  }
]

Please report the recorded RAM network inhibition for `CCCSc1nnc2nc3c(nn12)c1ccccc1n3C` .
0.96

Now this one: CCOC(=O)CSC1=C(C#N)C(c2ccc(C)o2)CC(=O)N1 (stereo unspecified)
0.15

Same question, `CCn1c2ccccc2c2cc(Nc3cc(C)nc4ncnn34)ccc21` this time
-1.23

And the next one, `Cn1c(=O)[nH]c(=O)c2c1nc(Sc1ccccc1)n2CCc1ccccc1` ?
7.53

Check CC1=C(C(=O)N2CCOCC2)C(c2cccs2)NC(=O)N1 (stereo unspecified) too.
3.01

Also, `C=C(Cl)COc1ccc2c(C)cc(=O)oc2c1` please.
0.1

The reported numbers originate from PubChem BioAssay.
